- Assay system: Mitogen-activated protein kinase 1 (Homo sapiens) (UniProt P28482);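 also: reported figure is an averaged percent inhibition of the kinase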
- Sequence (P28482 whole entry): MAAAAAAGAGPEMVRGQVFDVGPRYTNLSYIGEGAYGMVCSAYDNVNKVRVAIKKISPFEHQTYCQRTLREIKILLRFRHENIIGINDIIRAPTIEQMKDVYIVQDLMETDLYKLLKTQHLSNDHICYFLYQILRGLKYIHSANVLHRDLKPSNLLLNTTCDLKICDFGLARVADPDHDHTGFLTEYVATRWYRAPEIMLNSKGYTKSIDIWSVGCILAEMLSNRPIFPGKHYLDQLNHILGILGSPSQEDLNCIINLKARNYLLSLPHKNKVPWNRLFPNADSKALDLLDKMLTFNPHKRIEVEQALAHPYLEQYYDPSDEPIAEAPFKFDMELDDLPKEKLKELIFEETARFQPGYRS
- Particulars: at 0.1 µM
Parameter inhibition: see the listing below.
Report only the number, with the unit % understood.

Cc1ccc(NC(=O)CC2CC2)cc1-c1ccc(C(=O)NCC2CC2)cc1 : 2.01

For the compound shown here, O=C1Nc2ccc(-c3cccnc3)cc2C1=Cc1cc(Br)c(O)c(Br)c1 , give the reported inhibition.
6.12

Data request, read-out inhibition, for c1ccc(Nc2ncc(-c3ccccc3)o2)cc1
6.94

For the compound COc1ccc2ncnc(Nc3ccc(OCc4ccccc4)cc3)c2c1 , what inhibition is on record?
2.37

====

- Assay system: Serine/threonine-protein kinase D3 (Homo sapiens);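 also: values are mean inhibition figures against PRKD3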
- Sequence (whole entry): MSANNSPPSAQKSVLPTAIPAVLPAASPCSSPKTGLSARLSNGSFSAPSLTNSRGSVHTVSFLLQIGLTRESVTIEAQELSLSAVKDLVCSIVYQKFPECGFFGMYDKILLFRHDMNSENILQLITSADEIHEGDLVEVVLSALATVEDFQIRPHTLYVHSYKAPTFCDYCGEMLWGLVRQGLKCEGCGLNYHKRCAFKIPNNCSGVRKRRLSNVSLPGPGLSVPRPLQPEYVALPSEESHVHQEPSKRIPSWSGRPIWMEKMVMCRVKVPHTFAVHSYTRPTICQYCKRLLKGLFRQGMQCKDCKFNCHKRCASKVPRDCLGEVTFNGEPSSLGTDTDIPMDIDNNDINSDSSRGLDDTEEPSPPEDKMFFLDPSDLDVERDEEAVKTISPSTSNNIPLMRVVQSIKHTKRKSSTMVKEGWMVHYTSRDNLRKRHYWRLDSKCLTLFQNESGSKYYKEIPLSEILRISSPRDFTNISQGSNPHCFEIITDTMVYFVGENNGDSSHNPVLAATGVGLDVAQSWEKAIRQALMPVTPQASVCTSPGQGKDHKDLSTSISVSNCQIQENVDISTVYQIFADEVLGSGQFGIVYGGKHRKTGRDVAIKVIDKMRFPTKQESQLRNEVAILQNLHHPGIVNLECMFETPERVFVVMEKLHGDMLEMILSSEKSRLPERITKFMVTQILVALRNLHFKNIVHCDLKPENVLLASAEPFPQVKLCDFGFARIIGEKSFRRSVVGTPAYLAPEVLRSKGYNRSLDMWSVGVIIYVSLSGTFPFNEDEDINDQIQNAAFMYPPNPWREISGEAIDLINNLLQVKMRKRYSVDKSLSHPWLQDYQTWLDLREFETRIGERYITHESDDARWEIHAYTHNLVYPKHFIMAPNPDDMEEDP
- Particulars: at 1 µM
Experimental endpoint: inhibition (%)
Enter your answer as a number in %; do not include the unit.

Observe how each entry below is paired with its result.
CS(=O)(=O)CCNCc1nc(-c2ccc3ncnc(Nc4ccc(OCc5cccc(C(F)(F)F)c5)cc4)c3c2)cs1 : 2.19
Cc1ccc(NC(=O)CC2CC2)cc1-c1ccc(C(=O)NCC2CC2)cc1 : 3.66
COc1cccc(-n2ncc3c(N/N=C/c4ccc(C)cc4)ncnc32)c1 : 9.61
CCS(=O)(=O)c1ccc(OC)c(Nc2nccc(N(C)c3ccc4c(C)n[nH]c4c3)n2)c1 : 4.86
CCCN1CCCC(c2ccc(Nc3nc(Nc4cc(F)ccc4C(N)=O)c4cc[nH]c4n3)c(OC)c2)C1 (centres undefined) : 72.7
NS(=O)(=O)c1ccc(-c2cc3ccncc3cc2OCc2ccccc2)cc1 : 2.51

Dear colleague, I am looking for the recorded inhibition of the following molecule: CN1CCN(C(=O)c2ccc(NC(=O)Nc3ccc(N(C)c4ccnc(Nc5ccc(CS(C)(=O)=O)cc5)n4)cc3)cc2)CC1
3.69

Given the molecule c1ccc(Cc2nc3ccc(Nc4ncnc5ccccc45)cc3[nH]2)cc1 , what is its reported inhibition?
5.52

Reported inhibition for CC(C)c1ccc(Nc2nccc(-c3cnn4ncccc34)n2)cc1 : what is it?
15.6

Find the recorded inhibition belonging to CCOc1nccc2c1nc(-c1nonc1N)n2CC and report it.
2.21

// inhibition lookup, key: NC(=O)c1sc(-n2cnc3ccccc32)cc1OCc1ccccc1Br
8.54

Consider the molecule COc1cc(/C=N/Nc2ncnc3c2cnn3C(C)C)ccc1O and give its measured inhibition.
1.6

Look up inhibition: NS(=O)(=O)c1ccc(Nc2cc(-c3cccc(O)c3)n[nH]2)cc1
8.42

# lookup: inhibition of COC(=O)c1cncc(/C=C/c2c(C)cc(O)cc2C)c1
3.64

Item under review: Cc1ccc2c(-c3ccnc(Nc4ccc5c(c4)OCCO5)n3)c(-c3ccc(C(F)(F)F)cc3)nn2n1 . Reported inhibition?
2.26

# lookup: inhibition of Oc1cccc(-c2nc(-c3ccccc3)[nH]c2-c2ccncc2)c1
4.25

For ON=C1CCc2cc(-c3nc(C4CCNCC4)[nH]c3-c3ccncc3)ccc21 , what is its reported inhibition?
8.68

Query: inhibition; subject: COc1cc2ncnc(Nc3ccc(C)c(O)c3)c2cc1OC
8.58

Could you share which inhibition value was measured for C[C@@H](Oc1cc(-n2cnc3ccc(OCC4CCN(C)CC4)cc32)sc1C(N)=O)c1ccccc1C(F)(F)F ?
16.9
